- tested.on: Cyclin-dependent kinase 4 (Homo sapiens, UniProt P11802)
- Sequence (P11802 whole entry): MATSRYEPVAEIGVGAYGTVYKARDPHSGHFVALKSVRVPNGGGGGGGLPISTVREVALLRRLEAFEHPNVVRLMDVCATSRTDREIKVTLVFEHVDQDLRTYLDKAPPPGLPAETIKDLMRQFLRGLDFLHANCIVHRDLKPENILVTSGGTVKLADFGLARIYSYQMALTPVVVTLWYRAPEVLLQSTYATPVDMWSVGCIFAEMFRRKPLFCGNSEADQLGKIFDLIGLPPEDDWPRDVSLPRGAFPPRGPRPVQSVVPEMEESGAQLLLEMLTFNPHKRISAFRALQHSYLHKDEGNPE
quantity.measured: IC50 (nM)
Numbers only, in nM.

Short answer please: IC50, Cyclin-dependent kinase 4 (Homo sapiens, UniProt P11802), entry COc1c(O)cc2c3c(cc4ccc(O)cc4c13)NC2=O [ARISTOLACTAM AIIIA]
1420
